- tested_target: CYP2D6 (Homo sapiens, UniProt P10635)
- Sequence (P10635 whole entry): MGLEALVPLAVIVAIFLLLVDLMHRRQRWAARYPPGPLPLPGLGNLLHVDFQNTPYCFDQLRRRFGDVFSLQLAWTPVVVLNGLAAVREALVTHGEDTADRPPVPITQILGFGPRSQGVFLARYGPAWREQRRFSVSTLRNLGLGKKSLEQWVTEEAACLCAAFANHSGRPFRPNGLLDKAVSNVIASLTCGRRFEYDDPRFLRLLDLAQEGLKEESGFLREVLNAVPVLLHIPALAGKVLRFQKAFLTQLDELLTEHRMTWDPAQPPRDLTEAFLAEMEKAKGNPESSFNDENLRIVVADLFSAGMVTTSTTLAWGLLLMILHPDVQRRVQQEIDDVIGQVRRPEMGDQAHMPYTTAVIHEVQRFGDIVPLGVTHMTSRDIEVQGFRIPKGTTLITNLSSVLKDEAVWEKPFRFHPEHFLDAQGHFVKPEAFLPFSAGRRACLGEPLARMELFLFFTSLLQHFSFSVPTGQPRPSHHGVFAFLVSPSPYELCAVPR
property_name: IC50

Q: Provide IC50, recorded with CYP2D6 (Homo sapiens, UniProt P10635), of COc1ccc(CNc2nc(N3CCC[C@H]3CO)ncc2C(=O)NCc2ccccn2)cc1Cl [NHPPC]
Ans: > 100 µM

###

- assay_comment: In vitro metabolic stability in dog liver microsomes
- Format: in vitro ADME
- condition_label: pH 7.4; dog liver microsomes; read-out: Ke (converted)
property_name: k el at 1 µM (s⁻¹)
Give a bare numeral; the unit s⁻¹ is implied.

Q: Dear colleague, please send me the reported k el at 1 µM for COc1ccc(CNc2nc(N3CCC[C@H]3CO)ncc2C(=O)NCc2ccccn2)cc1Cl when you can.
Ans: 0.0014

###

- assay_comment: In vitro metabolic stability in human liver microsomes
- Format: in vitro ADME
- condition_label: liver microsomes (pooled), pH 7.4; human liver microsomes; read-out: Ke (converted)
property_name: k el at 1 µM
Reply with a number, then the unit it belongs to.

Q: Give me measured k el at 1 µM, please, for this compound: COc1ccc(CNc2nc(N3CCC[C@H]3CO)ncc2C(=O)NCc2ccccn2)cc1Cl
Ans: 0.00025 s⁻¹

###

- assay_comment: In vitro metabolic stability in rat liver microsomes
- Type: in vitro ADME
- condition_label: pH 7.4; rat liver microsomes; read-out: Ke (converted)
- Experimental: The phosphate buffer (pH 7.4, 100 mM) and (300 mM) were prepared in deionized water. NADP and IA were dissolved in phosphate buffer and MgCl2 solution and then added 20 μL IDH (18 units/mg protein) and mixed. […] NHPPC and control concentrations were determined by LC-MS/MS at each time point (n = 3). […] Hepatic intrinsic clearance was estimated by using the scaling factors and calculated by using the following equation (Lave et al. [1997]). […]
property_name: k el at 1 µM (s⁻¹)
Please state the figure in s⁻¹; there is no need to write the unit.

Q: // fetch k el at 1 µM given entry COc1ccc(CNc2nc(N3CCC[C@H]3CO)ncc2C(=O)NCc2ccccn2)cc1Cl
Ans: 0.000272

###

- tested_target: CYP3A4 (Homo sapiens)
- Construct: tissue BD Gentest; host or cells: pooled human liver microsomes
- Sequence (P08684 whole entry): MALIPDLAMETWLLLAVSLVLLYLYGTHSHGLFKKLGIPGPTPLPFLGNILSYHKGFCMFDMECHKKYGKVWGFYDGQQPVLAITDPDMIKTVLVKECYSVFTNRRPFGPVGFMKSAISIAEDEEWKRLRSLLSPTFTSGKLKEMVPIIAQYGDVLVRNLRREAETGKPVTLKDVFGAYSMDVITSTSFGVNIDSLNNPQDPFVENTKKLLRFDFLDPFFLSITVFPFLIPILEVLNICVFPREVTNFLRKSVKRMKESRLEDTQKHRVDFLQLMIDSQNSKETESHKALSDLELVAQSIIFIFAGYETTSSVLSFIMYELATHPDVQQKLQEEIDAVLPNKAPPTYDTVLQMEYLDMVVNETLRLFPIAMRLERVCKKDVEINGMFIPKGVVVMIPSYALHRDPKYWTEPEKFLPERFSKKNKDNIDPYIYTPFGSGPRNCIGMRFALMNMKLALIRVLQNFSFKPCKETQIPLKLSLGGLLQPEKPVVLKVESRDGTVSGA
- assay_comment: CYP isozyme inhibition in human liver microsomes
- Type: in vitro ADME
- condition_label: CYP3A4 (midazolam based), calculated from inhibition at 3 μM
pIC50: −log10 of the molar value.
property_name: pIC50

Q: Answer with reported pIC50 of COc1ccc(CNc2nc(N3CCC[C@H]3CO)ncc2C(=O)NCc2ccccn2)cc1Cl [NHPPC]
Ans: < 4.00

###

- tested_target: CYP3A4 (Homo sapiens)
- Construct: tissue BD Gentest; host or cells: pooled human liver microsomes
- assay_comment: CYP isozyme inhibition in human liver microsomes
- Assay type: in vitro ADME
- condition_label: CYP3A4 (testosterone based), calculated from inhibition at 3 μM
property_name: IC50

Q: Name the recorded IC50 of the molecule listed here: COc1ccc(CNc2nc(N3CCC[C@H]3CO)ncc2C(=O)NCc2ccccn2)cc1Cl [NHPPC]
Ans: > 100 µM

###

- assay_comment: In vitro metabolic stability in human liver microsomes
- Type: in vitro ADME
- condition_label: liver microsomes (pooled), pH 7.4; human liver microsomes
- Protocol: The phosphate buffer (pH 7.4, 100 mM) and (300 mM) were prepared in deionized water. NADP and IA were dissolved in phosphate buffer and MgCl2 solution and then added 20 μL IDH (18 units/mg protein) and mixed. […] NHPPC and control concentrations were determined by LC-MS/MS at each time point (n = 3). […] Hepatic intrinsic clearance was estimated by using the scaling factors and calculated by using the following equation (Lave et al. [1997]). […]
property_name: half-life at 1 µM (min)
Could you give me the number in min? Just the number is fine.

Q: Return half-life at 1 µM for the following compound: COc1ccc(CNc2nc(N3CCC[C@H]3CO)ncc2C(=O)NCc2ccccn2)cc1Cl [NHPPC]
Ans: 46.2

###

- assay_comment: Plasma protein binding by equilibrium dialysis (rat)
- Format: in vitro ADME, Sprague–Dawley rat
- condition_label: Sprague-Dawley, pH 7.4; rat plasma, equilibrium dialysis, n = 3; read-out: Mean device recovery %
property_name: recovery at 6 h, 0.2 μM (%)
Numbers only here, please. The scale is %.

Q: Dear colleague, please send me the reported recovery at 6 h, 0.2 μM for COc1ccc(CNc2nc(N3CCC[C@H]3CO)ncc2C(=O)NCc2ccccn2)cc1Cl when you can.
Ans: 98.6

###

- assay_comment: In vivo pharmacokinetic study in rats
- Parameters: species or system male Sprague–Dawley rats
- condition_label: male, Sprague-Dawley, plasma; rat, IV 1 mg/kg
property_name: AUC(0-t) (ng·h/mL)
Expressed in ng·h/mL, but write only the number.

Q: Recall and state the measured AUC(0-t) for COc1ccc(CNc2nc(N3CCC[C@H]3CO)ncc2C(=O)NCc2ccccn2)cc1Cl .
Ans: 847

###

- assay_comment: In vivo pharmacokinetic study in rats
- Design: species or system male Sprague–Dawley rats
- condition_label: male, Sprague-Dawley, plasma; rat, IV 1 mg/kg; read-out: MRT0-∞
property_name: MRT inf (h)
Value expressed in h; do not type the unit.

Q: Retrieve MRT inf measured for COc1ccc(CNc2nc(N3CCC[C@H]3CO)ncc2C(=O)NCc2ccccn2)cc1Cl [NHPPC] and print it.
Ans: 5.5

###

- assay_comment: Stability in plasma, 6 h incubation at 37°C (rat)
- Type: in vitro ADME
- condition_label: Sprague-Dawley, mean of 0.2 and 1 µM, read-out: Mean drug remaining %
property_name: remaining at 6 h (%)
// units = %; emit number, no label

Q: For the molecule COc1ccc(CNc2nc(N3CCC[C@H]3CO)ncc2C(=O)NCc2ccccn2)cc1Cl [NHPPC] , report remaining at 6 h.
Ans: 101

###

- assay_comment: In vitro metabolic stability in human liver microsomes
- Type: in vitro ADME
- condition_label: human, liver microsomes, pH 7.4, human liver microsomes, 60 min, in the presence of NADPH, 1 μM; read-out: percent remaining
property_name: remaining at 1 h, 1 µM (%)
// note: answer is a bare numeric in %

Q: Provide only the value of recorded remaining at 1 h, 1 µM for COc1ccc(CNc2nc(N3CCC[C@H]3CO)ncc2C(=O)NCc2ccccn2)cc1Cl
Ans: 42

###

- assay_comment: In vitro metabolic stability in dog liver microsomes
- Assay type: in vitro ADME
- condition_label: dog, liver microsomes, pH 7.4, dog liver microsomes, 60 min, in the presence of NADPH, 1 μM; read-out: percent remaining
property_name: remaining at 1 h, 1 µM (%)
Response body: numeric value in %, unit text excluded.

Q: Annotate the molecule COc1ccc(CNc2nc(N3CCC[C@H]3CO)ncc2C(=O)NCc2ccccn2)cc1Cl with its measured remaining at 1 h, 1 µM.
Ans: 0.8

###

- assay_comment: Stability in plasma, 6 h incubation at 37°C (human)
- Type: in vitro ADME
- condition_label: 0.2 µM, n = 3, read-out: Mean drug remaining %
property_name: remaining at 6 h, 0.2 µM (%)
The reply should be a number in %, with the unit left off.

Q: Give the value of remaining at 6 h, 0.2 µM reported for the following: COc1ccc(CNc2nc(N3CCC[C@H]3CO)ncc2C(=O)NCc2ccccn2)cc1Cl
Ans: 99.8

###

- assay_comment: In vivo pharmacokinetic study in rats
- Parameters: species or system male Sprague–Dawley rats
- condition_label: male, Sprague-Dawley, plasma; rat, IV 1 mg/kg
property_name: half-life (h)
Report the figure in h without appending any unit label.

Q: # return recorded half-life for entry COc1ccc(CNc2nc(N3CCC[C@H]3CO)ncc2C(=O)NCc2ccccn2)cc1Cl
Ans: 4.55
